Readings of Tmax at 96 h for the listed molecules
assay: in vivo; settings: Sprague-Dawley, rat, po
Description: Tmax in po dosed Sprague-Dawley rat administered for 4 days
The response must be a number in min with no trailing unit.

# Mol, Quantitative readout
records = [
    ("CC(=O)N(C)C[C@H]1C[C@H](c2ccc(CN3CCCC3)c(Cl)c2)C1", 30),
]

Value lookup for Tmax at 96 h; key = `c1cnc(OC[C@H]2C[C@H](c3ccc(CN4CCCC4)cc3)C2)nc1`
30

Which Tmax at 96 h is reported for this molecule? `CC(C)CNC(=O)[C@H]1C[C@@](F)(c2ccc(CN3CCCC3)c(F)c2)C1`
30

Give its Tmax at 96 h value. Item: `c1cc([C@H]2C[C@@H](CN3CCOCC3)C2)ccc1CN1CCCC1`
30

# get_value(readout='Tmax at 96 h', item= `CCNC(=O)[C@H]1C[C@@](F)(c2ccc(CN3CCCC3)c(F)c2)C1` )
30

###

molecular target: Voltage-gated inwardly rectifying potassium channel KCNH2 (Homo sapiens); experiment: Inhibition of human Erg expressed in human HEK293 cells
Sequence (Q12809 whole entry): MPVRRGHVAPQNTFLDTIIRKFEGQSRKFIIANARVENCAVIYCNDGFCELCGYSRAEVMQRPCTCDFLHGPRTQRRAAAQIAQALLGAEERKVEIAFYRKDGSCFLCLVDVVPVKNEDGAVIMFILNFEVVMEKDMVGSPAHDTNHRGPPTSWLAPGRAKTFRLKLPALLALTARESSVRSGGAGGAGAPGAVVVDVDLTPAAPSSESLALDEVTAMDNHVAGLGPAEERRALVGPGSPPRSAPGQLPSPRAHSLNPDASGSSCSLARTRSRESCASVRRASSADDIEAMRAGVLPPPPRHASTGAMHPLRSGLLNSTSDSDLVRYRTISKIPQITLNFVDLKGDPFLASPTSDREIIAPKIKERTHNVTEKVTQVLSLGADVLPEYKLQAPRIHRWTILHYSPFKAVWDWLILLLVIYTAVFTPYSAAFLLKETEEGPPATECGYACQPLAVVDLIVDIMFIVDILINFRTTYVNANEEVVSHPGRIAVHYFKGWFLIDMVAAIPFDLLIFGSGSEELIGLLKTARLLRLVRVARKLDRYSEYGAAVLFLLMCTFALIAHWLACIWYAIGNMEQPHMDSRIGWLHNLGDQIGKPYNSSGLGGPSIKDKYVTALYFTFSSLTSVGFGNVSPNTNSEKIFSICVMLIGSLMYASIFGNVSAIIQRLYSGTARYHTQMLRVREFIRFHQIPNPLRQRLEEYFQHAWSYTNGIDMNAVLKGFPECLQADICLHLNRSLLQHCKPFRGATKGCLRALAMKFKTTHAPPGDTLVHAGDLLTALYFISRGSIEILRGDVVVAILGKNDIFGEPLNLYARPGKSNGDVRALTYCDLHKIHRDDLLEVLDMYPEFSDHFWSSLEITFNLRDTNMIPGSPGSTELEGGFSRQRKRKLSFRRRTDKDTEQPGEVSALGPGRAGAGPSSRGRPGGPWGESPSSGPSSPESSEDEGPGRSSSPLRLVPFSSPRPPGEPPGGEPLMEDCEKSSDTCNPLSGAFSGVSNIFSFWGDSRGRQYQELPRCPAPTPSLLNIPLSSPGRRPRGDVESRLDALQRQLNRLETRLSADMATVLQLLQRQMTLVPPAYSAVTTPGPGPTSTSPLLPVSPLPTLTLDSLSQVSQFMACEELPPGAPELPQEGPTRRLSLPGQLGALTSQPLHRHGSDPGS
Endpoint name: IC50 (µM)
Just the number in µM, nothing appended.

Which IC50 is reported for this molecule? `c1cc([C@H]2C[C@@H](CN3CCOCC3)C2)ccc1CN1CCCC1`
300

###

experiment: AUC in beagle dog at 50 mg/kg, po administered for 7 days measured on day 1; format: ADME, organism-based, Canis lupus familiaris; set-up: dose 50 mg/kg, route oral; settings: plasma
Endpoint name: AUC at 168 h
Reply with a number, then the unit it belongs to.

Given the compound `CC(=O)N(C)C[C@H]1C[C@H](c2ccc(CN3CCCC3)c(Cl)c2)C1` , what is its reported AUC at 168 h?
4.78 µg·h/mL

###

As an illustration, consider measured Ki for compounds on Histamine H3 receptor (Homo sapiens, UniProt Q9Y5N1).
Sequence (Q9Y5N1 whole entry): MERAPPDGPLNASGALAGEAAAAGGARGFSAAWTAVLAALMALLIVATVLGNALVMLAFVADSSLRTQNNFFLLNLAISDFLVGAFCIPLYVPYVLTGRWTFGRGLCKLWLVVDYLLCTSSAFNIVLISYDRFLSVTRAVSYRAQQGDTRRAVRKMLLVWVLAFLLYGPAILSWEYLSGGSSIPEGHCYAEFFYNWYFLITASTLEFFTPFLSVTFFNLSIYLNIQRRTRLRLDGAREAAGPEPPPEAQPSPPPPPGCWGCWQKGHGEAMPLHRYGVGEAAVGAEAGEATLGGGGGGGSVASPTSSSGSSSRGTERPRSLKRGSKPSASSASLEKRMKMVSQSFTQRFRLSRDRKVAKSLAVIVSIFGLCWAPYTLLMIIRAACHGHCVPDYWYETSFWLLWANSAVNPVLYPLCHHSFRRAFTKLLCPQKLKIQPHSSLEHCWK
Please state the number and follow it with the unit.

Worked cases, answers included:
# Compound, Ki
measured = [
    ("CN(C)Cc1ccc(-c2ccc(CN(C)C)cc2)cc1", "1.3 nM"),
    ("CC(C)CNC(=O)[C@H]1C[C@@](F)(c2ccc(CN3CCCC3)c(F)c2)C1 [PF-03654764]", "1.4 nM"),
    ("c1cc([C@H]2C[C@@H](CN3CCOCC3)C2)ccc1CN1CCCC1", "2.2 nM"),
    ("CCNC(=O)[C@H]1C[C@@](F)(c2ccc(CN3CCCC3)c(F)c2)C1 [PF-03654746]", "2.3 nM"),
]

Param readout= Ki; system= Histamine H3 receptor (Homo sapiens, UniProt Q9Y5N1); entry= `c1cnc(OC[C@H]2C[C@H](c3ccc(CN4CCCC4)cc3)C2)nc1` ; returns value.
8.7 nM

###

test: in vivo; conditions: beagle, dog, po, 50 mg/kg
Endpoint name: Cmax (ng/mL)
Reply with just the number (in ng/mL).

What value of Cmax has been reported for the following compound? `CC(=O)N(C)C[C@H]1C[C@H](c2ccc(CN3CCCC3)c(Cl)c2)C1`
3200

###

Reported Papp A→B at 2 µM values follow for various compounds
experiment: in vitro; settings: human, Caco-2
Description: Permeability across apical to basolateral side in human Caco2 cells at 2 uM
A number alone suffices; assume ×10⁻⁶ cm/s.

# Compound, Unit of measurement, Quantitative readout
data = [
    ("CCNC(=O)[C@H]1C[C@@](F)(c2ccc(CN3CCCC3)c(F)c2)C1 [PF-03654746]", "×10⁻⁶ cm/s", 44.7),
    ("c1cc([C@H]2C[C@@H](CN3CCOCC3)C2)ccc1CN1CCCC1", "×10⁻⁶ cm/s", 8.2),
]

Look at this compound and give its reported Papp A→B at 2 µM. CC(C)CNC(=O)[C@H]1C[C@@](F)(c2ccc(CN3CCCC3)c(F)c2)C1 [PF-03654764]
38.8

Data request, read-out Papp A→B at 2 µM, for `CC(=O)N(C)C[C@H]1C[C@H](c2ccc(CN3CCCC3)c(Cl)c2)C1`
53.4

What measured Papp A→B at 2 µM goes with `c1cnc(OC[C@H]2C[C@H](c3ccc(CN4CCCC4)cc3)C2)nc1` ?
32.5
